meta.source: the nanobody polyreactivity screen of Harvey et al. (2022)

Measurement protocol: yeast display, Sf9 membrane polyspecificity reagent, FACS + sequencing; frameworks hold sequencing errors
Metric name: polyreactivity (PSR sort gate)

Worked cases, answers included:
* QVQLVESGGGLVRAGGSLRLSWAASGFTFTSYAMGWYRQAPGKERELVAAITVTGGRTYYADSVKGRFTISRDNAKNTVYLQMNSLKPEDTAVYYCATVFSLSSPYWKHYYWGQGTQVTVSS | high polyreactivity
* QVQLVESGGGLVQAGGSLRLSCAASGRTFRSYTMGWYRQAPGKERELVAAIRTSSGSTYYADSVKGRFTISRDNAKNTVYLQMNSLKPEDSGVYYGAKTLLYPWFRTVAVDYWGQGTQVTVSS | low polyreactivity
* QVQLVESGGGLGQAGGSLRLSCAASGRTFYDNAMGWYRPAPGKERELVAAISSSGSSTYYADSVKGRFTISLDNAKNTVYLQKNSLKPEDTAVYYCSASYTDYYFGFGTDVRYGYWGQGTQVTVSS | high polyreactivity
* QVQLVESGGGLVQAGGSLRLICAASGSTFRYYAMGWYRQAPGKEREFVAAISLRAGSTYYADSVKGRFTISRDNAKNTVYLQMNSLKPEDTAVYYCAARRASYGTRRYDYWGQGTQVTVSS | high polyreactivity

Please turn your attention to the following entry.
Which polyreactivity (PSR sort gate) value is on record for "QVQLVESGGGLVQAGGSLRLSCAASGSTLVYYDMGWYRQAPGKERELVATITGTDSAYYAVSVKGRFTISRDNAMNTVYLQMNRLKPEDTADCAADRAASRADYEYWGQGTQVTVSS" ?
low polyreactivity
